Assay: Pharmacokinetic study in dogs, released DPTIP in plasma after IV or peroral dose
Type: in vivo, male Beagle dogs
Details: male, Beagle, dog, plasma, IV 1 mg/kg, read-out: clearance (CL)
readoutName: clearance (mL/min/kg)

compound="COc1cc(-c2nc(-c3cccs3)c(-c3ccccc3)[nH]2)cc(OC)c1O [DPTIP]" readoutname=clearance unitstring=mL/min/kg recordedmeasurement=12

---

Assay: Pharmacokinetic study in dogs, released DPTIP in plasma after IV or peroral dose
Type: in vivo, male Beagle dogs
Conditions: male, Beagle, dog, plasma, iv, 1 mg/kg, IV 1 mg/kg, read-out: maximum plasma concentration (Cmax)
readoutName: Cmax (nM)

compound="COc1cc(-c2nc(-c3cccs3)c(-c3ccccc3)[nH]2)cc(OC)c1O [DPTIP]" recordedmeasurement=2400

---

Assay: Pharmacokinetic study in dogs, released DPTIP in plasma after IV or peroral dose
Type: in vivo, male Beagle dogs
Settings: male, Beagle, dog, plasma, iv, 1 mg/kg, IV 1 mg/kg, value dose adjusted to 2 mg/kg, read-out: Cmax
readoutName: Cmax (µM)

compoundstructurestring=COc1cc(-c2nc(-c3cccs3)c(-c3ccccc3)[nH]2)cc(OC)c1O readoutname=Cmax recordedmeasurement=4.8

---

Test: In vitro stability in dog plasma
Format: in vitro ADME
Conditions: dog, 37 °C, 60 min, read-out: In Vitro Stability in Plasma (% Remaining at 60 min) Mean ± SEM (n = 3), Dogs
readoutName: remaining at 1 h, 10 μM

molecule="CCC1CC(N2CCCCC2)CC(CC)N1C(=O)Oc1c(OC)cc(-c2nc(-c3ccccc3)c(-c3cccs3)[nH]2)cc1OC (centres unmarked) [Prodrug 7]" recordedmeasurement="> 90%"
molecule="COc1cc(-c2nc(-c3ccccc3)c(-c3cccs3)[nH]2)cc(OC)c1OC(=O)N(C)C [Prodrug 4]" recordedmeasurement="> 90%"
molecule=COc1cc(-c2nc(-c3cccs3)c(-c3ccccc3)[nH]2)cc(OC)c1O recordedmeasurement="> 90%"
molecule="CCCCCC(=O)Oc1c(OC)cc(-c2nc(-c3ccccc3)c(-c3cccs3)[nH]2)cc1OC [Prodrug 3]" recordedmeasurement=~60%
molecule="COc1cc(-c2nc(-c3ccccc3)c(-c3cccs3)[nH]2)cc(OC)c1OC(=O)N1CCC(N2CCCCC2)CC1 [Prodrug 2]" recordedmeasurement="> 90%"
molecule="CCCCCN(C)C(=O)Oc1c(OC)cc(-c2nc(-c3ccccc3)c(-c3cccs3)[nH]2)cc1OC [Prodrug 5]" recordedmeasurement="40 to 77%"
molecule="COc1cc(-c2nc(-c3ccccc3)c(-c3cccs3)[nH]2)cc(OC)c1OC(=O)[C@@H](N)C(C)C [Prodrug 8]" recordedmeasurement=~0%
molecule="COc1cc(-c2nc(-c3ccccc3)c(-c3cccs3)[nH]2)cc(OC)c1OCOP(=O)(O)O [Prodrug 6]" recordedmeasurement="> 90%"

---

Test: In vitro stability in human plasma
Format: in vitro ADME
Settings: human, 37 °C, 60 min, read-out: In Vitro Stability in Plasma (% Remaining at 60 min) Mean ± SEM (n = 3), Humans
Below, each of the molecules is paired with its reported remaining at 1 h, 10 μM value.
readoutName: remaining at 1 h, 10 μM

molecule=COc1cc(-c2nc(-c3cccs3)c(-c3ccccc3)[nH]2)cc(OC)c1O recordedmeasurement="> 90%"
molecule="CCCCCN(C)C(=O)Oc1c(OC)cc(-c2nc(-c3ccccc3)c(-c3cccs3)[nH]2)cc1OC [Prodrug 5]" recordedmeasurement="40 to 77%"
molecule="CCC1CC(N2CCCCC2)CC(CC)N1C(=O)Oc1c(OC)cc(-c2nc(-c3ccccc3)c(-c3cccs3)[nH]2)cc1OC (centres unmarked) [Prodrug 7]" recordedmeasurement="> 90%"
molecule="COc1cc(-c2nc(-c3ccccc3)c(-c3cccs3)[nH]2)cc(OC)c1OC(=O)[C@@H](N)C(C)C [Prodrug 8]" recordedmeasurement=~0%
molecule="COc1cc(-c2nc(-c3ccccc3)c(-c3cccs3)[nH]2)cc(OC)c1OC(=O)N1CCC(N2CCCCC2)CC1 [Prodrug 2]" recordedmeasurement="> 90%"
molecule="CCCCCC(=O)Oc1c(OC)cc(-c2nc(-c3ccccc3)c(-c3cccs3)[nH]2)cc1OC [Prodrug 3]" recordedmeasurement=~80%
molecule="COc1cc(-c2nc(-c3ccccc3)c(-c3cccs3)[nH]2)cc(OC)c1OC(=O)N(C)C [Prodrug 4]" recordedmeasurement="> 90%"
molecule="COc1cc(-c2nc(-c3ccccc3)c(-c3cccs3)[nH]2)cc(OC)c1OCOP(=O)(O)O [Prodrug 6]" recordedmeasurement="> 90%"

---

Assay: Pharmacokinetic study in dogs, released DPTIP in plasma after IV or peroral dose
Assay type: in vivo, male Beagle dogs
Settings: male, Beagle, dog, plasma, IV 1 mg/kg, read-out: volume of distribution (Vd)
readoutName: Vd (L/kg)

compoundstructurestring=COc1cc(-c2nc(-c3cccs3)c(-c3ccccc3)[nH]2)cc(OC)c1O readoutname=Vd unitstring=L/kg recordedmeasurement=3.8
